Experiment: qHTS of pediatric cancer cell lines to identify multiple opportunities for drug repurposing: Primary screen for TC32 cells (AID 1347089); note: nearly all actives have a fitted effect of over 60% in size
Settings: TC32 Ewing sarcoma viability, CellTiter-Glo luminescence, 48 h; series mostly up to 45.8 µM
Records with an inconclusive call do not appear. Active and inactive are the calls of the source. Calls come from the whole dose curve; as a rule, active = well fitted cell-killing curve with a large enough effect; inconclusive = small, poorly fitted or top-dose-only effect; inactive = flat fitted curve, though single readings scatter.

{"compound": "CCN(CC)CCOC(=O)c1ccc(N)cc1", "outcome": "inactive"}
{"compound": "COC1CCC(N(C(=O)C2CCC(C)CC2)c2cc(C3=CCCCC3)sc2C(=O)O)CC1 (stereo not given)", "outcome": "inactive"}
{"compound": "CCn1cc(C(=O)O)c(=O)c2ccc(C)nc21", "outcome": "inactive"}
{"compound": "COc1ccc2cc(-c3nc(-c4ccc(S(C)=O)cc4)[nH]c3-c3ccncc3)ccc2c1 (stereo not given)", "outcome": "inactive"}
{"compound": "CN(C)CCC(c1ccccc1)c1ccccn1 (stereo not given)", "outcome": "inactive"}
